System: EKVX NSCLC
Assay: NCI-60 one-dose screen, 48 h
Conditions: 10 µM unless noted
Method: Growth inhibition of the EKVX human Non-Small Cell Lung tumor cell line is measured as a screen for anti-cancer activity. Cells are grown in 96 well plates and exposed to the test compound for 48 hours. Compounds are tested at a single concentration, which is 10^-5 M for most compounds. The reported endpoint is percent growth (GI% or GIPRCNT), where numbers from 0 - 100% represent growth inhibition, and numbers from -100% - 0 represent cell death. […]
The panel holds about 83,000 compounds, 20% with a hit somewhere; the sample as a whole holds those more often. Active and inactive are the calls of the source. The calls were made as follows: active = growth percent below 10; inactive = the rest.
Outcome codes: Y for active, N for inactive

compound	system	group
Nc1ccc(Cl)c2c(=O)c3ccccc3[nH]c12	EKVX NSCLC	N
CC1OC(C(=O)N2CCN(CCO)CC2)CC1COC1CCCCC1 (stereo unspecified)	EKVX NSCLC	N
Cn1cc(-c2csc(-c3cn(C)c4ccc(F)cc34)n2)c2cnccc21	EKVX NSCLC	Y
CCOc1ccc(-c2cc(C3(S(=O)(=O)c4ccc(C)cc4)CC=CC3)on2)cc1	EKVX NSCLC	N
CCCN1C2CCC1/C(=C\c1ccc(OC)cc1)C(=O)/C2=C/c1ccc(OC)cc1	EKVX NSCLC	N
COc1ccc(NC(=O)CSc2oc(-c3ccccc3)nc2S(=O)(=O)c2ccc(Cl)cc2)c(OC)c1	EKVX NSCLC	N
C#CCOc1cccc(Nc2ncnc3c(NC(=O)CCl)cccc23)c1	EKVX NSCLC	Y
Cc1c(CC(=O)Nc2ccccc2)nnn1-c1ccccc1	EKVX NSCLC	N
COc1ccc(S(=O)(=O)Oc2ccc(-c3sc4cc(OS(=O)(=O)c5ccc(OC)cc5)ccc4c3C(=O)c3ccc(OCCN4CCCCC4)cc3)cc2)cc1	EKVX NSCLC	N
COc1ccccc1/C=C/C1=C(C)CCC(c2ccccc2OC)C1C (stereo unspecified)	EKVX NSCLC	N
COc1nc2ccccc2cc1/C=[N+](\[O-])c1ccccc1	EKVX NSCLC	N
O=C1c2ccccc2C(=O)c2cc(Cn3c[n+](Cc4ccc5ccccc5c4)c4ccccc43)ccc21	EKVX NSCLC	N
COc1ccc(S(=O)(=O)NC2c3ccccc3CC2O)cc1OC (stereo unspecified)	EKVX NSCLC	N
COc1cc(C(=O)n2nc(NCCCc3ccccc3)c3cc(N)ccc32)cc(OC)c1OC	EKVX NSCLC	N
COc1ccc(-n2c(=O)n(-c3ccc(-c4nc5ccc(F)cc5s4)cc3)c(=O)c3cccnc32)cc1	EKVX NSCLC	N
O=c1c2cccc3c(N4CCOCC4)ccc(c32)c2nc3ccccc3n12	EKVX NSCLC	N
Nc1ccc(N)c2c1C(=O)c1cccc([N+](=O)[O-])c1C2=O	EKVX NSCLC	N
O=c1c(/C=C/c2c(O)ccc3ccccc23)nnc2sc(-c3cccc([N+](=O)[O-])c3)nn12	EKVX NSCLC	N
O=C1/C(=C/c2cccc([N+](=O)[O-])c2)COc2ccc(O)c(O)c21	EKVX NSCLC	N
CCCCCCCCNC(=O)[C@@H](N)CSCOC(C)=O	EKVX NSCLC	N
CNc1nc2ncc(-c3c(C)noc3C)cc2n1Cc1ccccc1	EKVX NSCLC	N

* * *

test system: HCT-116 colon; assay: NCI-60 one-dose screen, 48 h; settings: 10 µM unless noted
About 83,000 compounds went through this panel and 20% of them were active in at least one assay; those are over-represented in the sample as a whole. The source made the active and inactive calls. The calls were made as follows: active = growth percent below 10; inactive = the rest.
Outcome codes: active, inactive

compound	group
C#CCOc1ccc(C2=NN(C)C3N=C(Cl)c4ncn(C)c4N23)cc1OCC#C (configuration not stated)	inactive
COc1ccc(S(=O)(=O)NC2c3ccccc3CC2O)cc1OC (configuration not stated)	inactive
Cc1c(-c2cnc3ccc(Cl)cc3c2C(=O)O)nnn1-c1ccc(Cl)cc1	inactive
O=C1c2cccnc2C(=O)c2c1c(C(=O)OCCCN1CCOCC1)c1ccccn21	active
COc1cc(/C=C2\C(=O)N(CCOc3cc(O)c4c(=O)cc(-c5ccccc5)oc4c3)c3ccccc32)cc(OC)c1O	inactive
COc1cc2nc3cc([N+](=O)[O-])ccc3c(NCCCNCCO)c2cc1OC	active
Oc1c(Cl)cc(Cl)c2ccc(CN3CCNCC3)nc12	inactive
O=C(COc1ccc(/C=C2\Oc3ccccc3C2=O)cc1)Nc1nccs1	inactive
CC(Cc1cccc2ccccc12)C(N)=O (configuration not stated)	inactive
C=C(C)Cn1c(SCC(=O)c2cccs2)nc2sc3c(c2c1=O)CCCC3	inactive
CSc1nc(CC(C)C)c(C#N)c(=O)n1C	inactive
C#CCOc1cccc(Nc2c(Cl)c(CCl)nc3ccc(Oc4ccccc4)cc23)c1	inactive
CCOC(=O)c1c2c(n3ccc(NC(=O)CCN4CCCC4)cc13)C(=O)c1ncccc1C2=O	active
O=[N+]([O-])c1ccc(Oc2cccc3c(Oc4ccc([N+](=O)[O-])cc4[N+](=O)[O-])cccc23)c([N+](=O)[O-])c1	inactive
O=C(O)c1cc2ccccc2s1	inactive
C#CCOc1cccc(Nc2ncnc3c(NC(=O)CCl)cccc23)c1	active
CCCCC/C=C/CCC(=O)N[C@H]1[C@H](Oc2c3cc4cc2Oc2ccc(cc2Cl)[C@@H](O[C@@H]2O[C@H](CO)[C@@H](O)[C@H](O)[C@H]2NC(C)=O)[C@@H]2NC(=O)[C@H](NC(=O)[C@@H]4NC(=O)[C@H]4NC(=O)[C@@H](Cc5ccc(c(Cl)c5)O3)NC(=O)[C@@H](N)c3ccc(O)c(c3)Oc3cc(O)cc4c3)c3ccc(O)c(c3)-c3c(O[C@H]4O[C@H](CO)[C@@H](O)[C@H](O)[C@@H]4O)cc(O)cc3[C@H](C(=O)O)NC2=O)O[C@H](CO)[C@H](O)[C@@H]1O	inactive
O=C(O)CCCN1C(=O)CSC1=S	inactive
Cn1ncc(CC(=O)O)c1-n1nnc2cc(Cl)ccc2c1=O	inactive
Cn1cc(-c2csc(-c3cn(C)c4ccc(F)cc34)n2)c2cnccc21	active
Cc1ccc(-c2nn(CC(=O)N3CCOCC3)c(N)c2C#N)cc1	inactive
Cc1ccc2nc(/C=C/c3ccc(N(C)C)cc3)cc(C)c2c1	inactive
O=c1cc(-c2nccc3c2[nH]c2ccccc23)c2cc(Cl)ccc2o1	active
Cn1ccnc1C(=O)/C=C/c1ccc(C(=O)Nc2ccccc2F)cc1	active
O=C1Nc2ccccc2/C1=C/c1cccn1CCCCCCn1c2ccccc2c(=O)c2ccccc21	inactive
CC(C)=CC(=O)C1C(=O)c2ccccc2C1=O	inactive
O=C1/C(=C/c2ccc(Br)cc2)COc2ccc(O)cc21	inactive
Cn1cc(-c2ccc3c(Nc4cccc(NC(=O)Nc5cccc(F)c5)c4)ncnc3c2)cn1	inactive
COc1cccc(C2C3=C(COC3=O)N(CCO)c3cc4c(cc32)OCCO4)c1 (configuration not stated)	active
C=C(c1ccc(C(=O)O)c(F)c1)c1cc2c(cc1C)C(C)(C)C=CC2(C)C	inactive
C=C(C)[C@@H]1CC[C@]2(COCCCNCCCN)CC[C@]3(C)[C@H](CC[C@@H]4[C@@]5(C)CC[C@H](OCCCN)C(C)(C)[C@@H]5CC[C@]43C)[C@@H]12	active
O=c1oc2ccccc2cc1-c1nn(-c2ccccc2)cc1/C=N/Nc1nc(-c2ccccc2)c(N=Nc2ccccc2)s1	inactive
COc1ccc(-c2csc(NC(=O)CSc3nc(C)cc(=O)[nH]3)n2)cc1	inactive
C#CCOc1cccc(-c2ncnc3cc(NC(=O)CCl)ccc23)c1	active
CCN1CCN(C(=O)[C@]23CC[C@@H](C)[C@H](C)[C@@H]2C2=CC[C@@H]4[C@@]5(C)C/C(=C/c6ccncc6)C(=O)C(C)(C)[C@@H]5CC[C@@]4(C)[C@]2(C)CC3)CC1	active
CCCCCCCCCCCCCCCCCCOc1ccccc1CC(=O)OCC[N+]1(C)CCCCC1	inactive
COc1cccc(/C=C/C(=O)/C=C(/C=C/c2cccc(OC)c2OC)OB(F)F)c1OC	active

* * *

test system: HOP-92 NSCLC; assay: NCI-60 one-dose screen, 48 h (100 = growth as untreated, 0 = no growth, -100 = all killed); conditions: 10 µM unless noted
About 83,000 compounds went through this panel and 20% of them were active in at least one assay; those are over-represented in the sample as a whole.

compound	growth [%]
C=CCn1c(SCC(=O)Nc2ccc(C(=O)/C=C/c3cc(OC)c(OC)c(OC)c3)cc2)nnc1-c1cc(-c2ccc(S(N)(=O)=O)cc2)nc2ccccc12	96.9
Cc1ccc(C23CCC(=O)N2CCc2cncn23)cc1 (stereo not drawn)	87.2
[2H]C([2H])([2H])Oc1ccc(/C=C/C(=O)/C=C(/C=C/c2ccc(OC([2H])([2H])[2H])c(OC([2H])([2H])[2H])c2OC([2H])([2H])[2H])OB(F)F)c(OC([2H])([2H])[2H])c1OC([2H])([2H])[2H]	74.1

* * *

tested on: NCI-H460 lung; test: NCI-60 one-dose screen, 48 h (100 = growth as untreated, 0 = no growth, -100 = all killed); conditions: 10 µM unless noted
About 83,000 compounds went through this panel and 20% of them were active in at least one assay; those are over-represented in the sample as a whole. Calls of active or inactive are those of the source. Rule for the calls: active = growth percent below 10; inactive = the rest.
endpoint: growth

compound	endpoint	result
O=C1C2C(c3cccs3)C=C(c3ccc(Cl)cc3)N2C(=S)N1c1ccccc1 (centres undefined)	growth	108% (inactive)
CC(C)CCc1nc2ccc(NCc3ccc(OCCN4CCC(C)CC4)cc3)cc2[nH]1	growth	100% (inactive)
CCOC(=O)C1=C(c2ccccc2)N=C2N(c3ccccc3)N=C(C(C)=O)N2C1c1ccc(Br)cc1 (centres undefined)	growth	98% (inactive)
COC(=O)c1cc(-c2ccc(OC)c(OC)c2)[nH]c1N/N=C/c1c(Cl)cccc1Cl	growth	14.6% (inactive)
CCN1CCN(CCOc2ccc(CNc3ccc4nc(CCC5CCCCC5)[nH]c4c3)cc2)CC1	growth	42.8% (inactive)
COc1ccc(C2=NN3C(C2)c2cc(Br)ccc2OC3c2ccncc2)cc1 (centres undefined)	growth	59.4% (inactive)
C#CCOc1ccc(C2=NN(C)C3N=C(Cl)c4ncn(C)c4N23)cc1OCC#C (centres undefined)	growth	105% (inactive)
COc1cc2cc(Oc3ccc(NC(=O)Nc4ccc(Cl)c(Cl)c4)cc3)c(C)nc2cc1OCCN1CCCCC1	growth	102% (inactive)
N#Cc1c(-c2ccc(F)cc2)cc(-c2cccc(Cl)c2)[nH]c1=O	growth	86.8% (inactive)
